assay: Hemolytic activity in human RBC at 4 ug/ml incubated for 30 mins; type: cell-based, Erythrocyte; conditions: red blood cells (erythrocytes), at 4 µg/mL, read-out: Activity
*1 amine or outer side, *2 acyl side, *3 side chain or, on linkers, in order; H or OH if unused. Where a SMILES comes first, the peptide text is derived from it. [ ]: non-standard residue; d: D form. X1 = CC[C@@H](C)[C@@H](O[*:1])C(=O)[*:2]; NMeVal(β-OH) = CN[C@H](C(=O)O)C(C)(C)O; NMeF = CN[C@@H](Cc1ccccc1)C(=O)O; aIle = CC[C@@H](C)[C@H](N)C(=O)O; NMeV = CN[C@H](C(=O)O)C(C)C
Could you please report measured hemolysis at 0.5 h, 4 ug/ml for the items listed next?
Report the value in % with no unit label.

*Q* Need hemolysis at 0.5 h, 4 ug/ml, item CC[C@@H](C)[C@@H]1NC(=O)[C@@H]2CCCN2C(=O)[C@H](Cc2ccccc2)N(C)C(=O)[C@H](Cc2ccccc2)NC(=O)[C@H](C(C)C)N(C)C(=O)[C@@H]([C@H](C)CC)OC(=O)[C@H](C(C)(C)O)N(C)C(=O)[C@H](CC(C)C)NC(=O)[C@H](C(C)C)N(C)C1=O [AUREOBASIDIN A] (cyclo(F[NMeF]P[aIle][NMeV]L[NMeVal(β-OH)][X1][NMeV]))
*A* 1.35

*Q* Same lookup for OC(Cn1cncn1)(Cn1cncn1)c1ccc(F)cc1F [FLUCONAZOLE] , please.
*A* 34

* * *

test: Cytotoxicity against human HEK293 cells assessed as inhibition of cell viability at 2 times MIC incubated for 24 hrs by MTT assay; assay type: cell-based; conditions: at 8 µg/mL, read-out: INH
*1 amine or outer side, *2 acyl side, *3 side chain or, on linkers, in order; H or OH if unused. Where a SMILES comes first, the peptide text is derived from it. [ ]: non-standard residue; d: D form. X1 = CC[C@@H](C)[C@@H](O[*:1])C(=O)[*:2]; NMeVal(β-OH) = CN[C@H](C(=O)O)C(C)(C)O; NMeF = CN[C@@H](Cc1ccccc1)C(=O)O; aIle = CC[C@@H](C)[C@H](N)C(=O)O; NMeV = CN[C@H](C(=O)O)C(C)C
Measurement type: cytotoxicity at 24 h, 2 times MIC (%)
Report the value in % with no unit label.

*Q* Need cytotoxicity at 24 h, 2 times MIC, item CC[C@@H](C)[C@@H]1NC(=O)[C@@H]2CCCN2C(=O)[C@H](Cc2ccccc2)N(C)C(=O)[C@H](Cc2ccccc2)NC(=O)[C@H](C(C)C)N(C)C(=O)[C@@H]([C@H](C)CC)OC(=O)[C@H](C(C)(C)O)N(C)C(=O)[C@H](CC(C)C)NC(=O)[C@H](C(C)C)N(C)C1=O [AUREOBASIDIN A] (cyclo(F[NMeF]P[aIle][NMeV]L[NMeVal(β-OH)][X1][NMeV]))
*A* 40
